Test system: ACVRL1
Test Parameters: concentration: 1 μM, replicates: in singlicate; n = 1;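 also: KINOMEscan kinase panel screen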
Assay Endpoint: %Inh (%)

* Cc1cccc(Nc2nc(NCCN)ncc2C(N)=O)c1 | 0
* Cc1ccc(NC(=O)c2ccnc(N3CCCCC3)c2)cc1-c1ccc(C(=O)NCC2CC2)cc1 | 0
* Cn1cc(-c2ccc3c(c2)CCN3C(=O)Cc2cc(F)cc(F)c2F)c2c(N)ncnc21 | 0
* CCNc1nccc(-c2c(-c3ccc(F)cc3)ncn2C2CCN(C)CC2)n1 | 0
* NCCC(NC(=O)c1cc(Br)c(-c2ccnc3[nH]ccc23)s1)c1ccccc1.O=C(O)C(F)(F)F.O=C(O)C(F)(F)F (centres unmarked) | 0
* CN(c1ccc2c(c1)nc(NCc1ccccc1)n2C)c1ccnc(Nc2ccc(CS(C)(=O)=O)cc2)n1.Cl | 0
* Cc1ccc(C)c(NC(=O)Nc2ccc(C)c(-c3ccc(C(=O)Nc4ccncc4)cc3)c2)c1 | 0
* O=C(Nc1c(F)cccc1F)c1cc(C(=O)c2ccccc2F)c[nH]1 | 9

###

Tested on: EPHA7
Test Parameters: concentration: 1 μM, replicates: in singlicate; n = 1
Assay Endpoint: %Inh (%)

- CN(C)CCOc1ccc(-c2cc(-c3ccc(Cl)c(O)c3)c(-c3ccncc3)[nH]2)cc1.Cl.Cl: 2
- Cc1ccc(NC(=O)c2ccc(Cl)c(Cl)c2)cc1-c1ccc(C(=O)Nc2ccncc2)cc1: 9
- Cc1ccc(NC(=O)c2cccc(N3CCCCC3)c2)cc1-c1ccc(C(=O)NCC2CC2)cc1: 24
- Cc1cc(-c2ccnc(Nc3cccc(C#N)c3)n2)cc(C)c1O: 18
- CN(c1ccc(NC(=O)N2CCN(CCCN3CCOCC3)CC2)cc1)c1ccnc(Nc2ccc(CS(C)(=O)=O)cc2)n1.Cl: 0
- Fc1cc(Cl)ccc1Nc1ccnc2cc(-c3ccc(CN4CCSCC4)o3)ccc12: 0
- COc1cc(Nc2ccnc3cc(-c4ccncc4)ccc23)cc(OC)c1OC.Cl: 0
- Cc1ccc(O)cc1Nc1ccnc2ccc(C(C)(C)C)cc12: 0
- c1ccc(Oc2ccc(Nc3ccnc4cc(-c5ccc(CN6CCCCC6)o5)ccc34)cc2)nc1: 0
- CCNc1nccc(-c2c(-c3ccc(F)cc3)ncn2C2CCN(C)CC2)n1: 0
- COc1cccc(-c2nc(-c3ccccc3)[nH]c2-c2ccncc2)c1: 9
- CS(=O)(=O)c1cccc(CNc2nc(Nc3ccc4c(c3)CCC(=O)N4)ncc2C(F)(F)F)c1: 0
- Nc1cccc(-c2ccc3c(N)n[nH]c3c2)c1: 9
- O=C(O)C(F)(F)F.O=c1[nH]ccc2nc(N[C@@H]3CCNC3)nc(Nc3ccc4c(c3)S(=O)(=O)CC4)c12: 27
- COc1cc(Nc2nccc(N3CCC(NS(=O)(=O)c4ccc(NC(C)=O)cc4)CC3)n2)cc(OC)c1OC: 0
- COC(=O)Nc1nc2ccc(Oc3ccc(CC(=O)Nc4cc(C(F)(F)F)ccc4F)cc3)cc2[nH]1: 9
- O=C(O)C(F)(F)F.O=c1[nH]ccc2nc(N[C@@H]3CCNC3)nc(Nc3cc(Cl)cc(Cl)c3)c12: 1

###

System: SRPK3
Test Parameters: concentration: 1 μM, replicates: in singlicate; n = 1
Property: %Inh; scope: individual compounds
Assay Endpoint: %Inh (%)

- Cl.N#CCc1ccc(Nc2nccc(Nc3ccc(Oc4ccccc4)cc3)n2)cc1: 0
- Cn1cc(-c2ccc3c(c2)CCN3C(=O)Cc2cc(F)cc(C(F)(F)F)c2)c2c(N)ncnc21: 2
- Cn1cc(-c2ccc3c(c2)CCN3C(=O)Cc2cc(F)cc(F)c2F)c2c(N)ncnc21: 0
- O=C(Nc1n[nH]c2cc(-c3cccs3)ccc12)C1CC1: 52
- Cn1cc(-c2cnc(N)c3c(-c4ccc5c(c4)CCN5C(=O)Cc4ccccc4)csc23)cn1: 0
- CC(C)c1nc(-c2ccc(F)c(NS(=O)(=O)c3c(F)cccc3F)c2)c(-c2ccnc(Nc3ccc(N4CCOCC4)nc3)n2)s1: 18
- CN(c1ccc2c(c1)nc(NCc1ccccc1)n2C)c1ccnc(Nc2ccc(CS(C)(=O)=O)cc2)n1.Cl: 34
- Cc1ccccc1CC(=O)N1CCc2cc(-c3cn(C)c4ncnc(N)c34)ccc21: 0
